We begin with a simple list: items and their reported shrunken log2 fold change.
# Tested on: Escherichia coli TOP10
# assay-details: shrunken log2 fold change of peptide-encoding DNA abundance (4.5 h post-induction vs induction); higher = less antimicrobial activity (less host growth inhibition)
# details: time post-induction: 4.5 h; library: site-saturation at positions 5, 18, 19, 20
Give a plain numeric answer without units written out.

{"biopolymer-sequence": "RRIRCRPPRLPRPRPRPWSLPRP", "shrunken log2 fold change": -1.5}
{"biopolymer-sequence": "RRIRMRPPRLPRPRPRPLLIPRP", "shrunken log2 fold change": -0.397}
{"biopolymer-sequence": "RRIRWRPPRLPRPRPRPCMRPRP", "shrunken log2 fold change": 0.506}
{"biopolymer-sequence": "RRIRPRPPRLPRPRPRPNGGPRP", "shrunken log2 fold change": -0.305}

QUERY: Find the measured shrunken log2 fold change: item RRIRVRPPRLPRPRPRPTNPPRP , target or system Escherichia coli TOP10.
RESULT: -0.296

QUERY: State its shrunken log2 fold change on Escherichia coli TOP10: RRIRSRPPRLPRPRPRPCVIPRP
RESULT: -0.172

QUERY: Reported shrunken log2 fold change for Escherichia coli TOP10, given RRIRSRPPRLPRPRPRPMWIPRP ?
RESULT: -0.0694

QUERY: Entry RRIRPRPPRLPRPRPRPKFRPRP , system Escherichia coli TOP10: what shrunken log2 fold change was measured?
RESULT: -0.122

QUERY: Request body: readout shrunken log2 fold change, system Escherichia coli TOP10, query RRIRMRPPRLPRPRPRPMYAPRP . Return the value.
RESULT: 0.0486

QUERY: Please provide the recorded shrunken log2 fold change for RRIRTRPPRLPRPRPRPFLLPRP , tested on Escherichia coli TOP10.
RESULT: -0.743

QUERY: Request body: readout shrunken log2 fold change, system Escherichia coli TOP10, query RRIRARPPRLPRPRPRPTGTPRP . Return the value.
RESULT: 0.363

QUERY: Find the measured shrunken log2 fold change: item RRIRCRPPRLPRPRPRPAIPPRP , target or system Escherichia coli TOP10.
RESULT: -0.246

QUERY: State its shrunken log2 fold change on Escherichia coli TOP10: RRIRERPPRLPRPRPRPKMSPRP
RESULT: 0.148

QUERY: Could you share what shrunken log2 fold change was measured for RRIRKRPPRLPRPRPRPPWMPRP , tested on Escherichia coli TOP10?
RESULT: 0.48

QUERY: Form entry - test system: Escherichia coli TOP10; read-out: shrunken log2 fold change; sequence: RRIRLRPPRLPRPRPRPTSQPRP
RESULT: -0.145

QUERY: Please state recorded shrunken log2 fold change (tested on Escherichia coli TOP10) of RRIRPRPPRLPRPRPRPQNWPRP
RESULT: 0.0202

QUERY: # get_value(readout= shrunken log2 fold change, system= Escherichia coli TOP10) for RRIRTRPPRLPRPRPRPEGWPRP
RESULT: 0.688

QUERY: Give shrunken log2 fold change (Escherichia coli TOP10) of the following sequence: RRIRARPPRLPRPRPRPQVYPRP
RESULT: -0.174

QUERY: API: value(readout= shrunken log2 fold change, system= Escherichia coli TOP10, query= RRIRERPPRLPRPRPRPGQAPRP )
RESULT: -0.00166

QUERY: Request - read-out shrunken log2 fold change | tested on Escherichia coli TOP10 | sequence RRIRVRPPRLPRPRPRPGDLPRP
RESULT: -0.211

QUERY: Which measured shrunken log2 fold change belongs to RRIRGRPPRLPRPRPRPEFVPRP , tested on Escherichia coli TOP10?
RESULT: 1.15

QUERY: // lookup shrunken log2 fold change | system=Escherichia coli TOP10 | key= RRIRERPPRLPRPRPRPKEAPRP
RESULT: 0.324

QUERY: Please provide the recorded shrunken log2 fold change for RRIRLRPPRLPRPRPRPAFIPRP , tested on Escherichia coli TOP10.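 Further: peptides expressed intracellularly from a pBAD plasmid library in pooled LB shake-flask culture, induced with 0.3% L-arabinose, DNA abundance read by NGS, three biological replicates, DESeq2 with apeglm shrinkage.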
RESULT: -0.116
